Assay: Solubility of oxime ester compound in solvent
Assay type: physicochemical
Settings: solvent PGM-Ac: Propylene glycol-1-monomethyl ether-2-acetate
reported_property: Solubility PGM-Ac (%)

CCCCC(CC)Cn1c2ccc(/C(Cc3ccccc3)=N/OC(C)=O)cc2c2cc([N+](=O)[O-])ccc21 (centres unmarked)
1.5

(I) CCCCC(CC)Cn1c2ccc(/C(=N/OC(C)=O)c3ccc(OC(C)COC)cc3)cc2c2cc([N+](=O)[O-])ccc21 (centres unmarked)
(II) CCOCCn1c2ccc(/C(C)=N/OC(C)=O)cc2c2cc([N+](=O)[O-])ccc21
Query block: Return label of the item with the larger Solubility PGM-Ac. Candidates: I , II . Lab log: write the label of the selected item as the result.
Result block: I
